Origin of the recorded values: ChEMBL document CHEMBL3739322

Overview of recorded fold change (FC) for various molecules
target: Nuclear factor erythroid 2-related factor 2 (Homo sapiens) (UniProt Q16236)
Sequence (whole entry): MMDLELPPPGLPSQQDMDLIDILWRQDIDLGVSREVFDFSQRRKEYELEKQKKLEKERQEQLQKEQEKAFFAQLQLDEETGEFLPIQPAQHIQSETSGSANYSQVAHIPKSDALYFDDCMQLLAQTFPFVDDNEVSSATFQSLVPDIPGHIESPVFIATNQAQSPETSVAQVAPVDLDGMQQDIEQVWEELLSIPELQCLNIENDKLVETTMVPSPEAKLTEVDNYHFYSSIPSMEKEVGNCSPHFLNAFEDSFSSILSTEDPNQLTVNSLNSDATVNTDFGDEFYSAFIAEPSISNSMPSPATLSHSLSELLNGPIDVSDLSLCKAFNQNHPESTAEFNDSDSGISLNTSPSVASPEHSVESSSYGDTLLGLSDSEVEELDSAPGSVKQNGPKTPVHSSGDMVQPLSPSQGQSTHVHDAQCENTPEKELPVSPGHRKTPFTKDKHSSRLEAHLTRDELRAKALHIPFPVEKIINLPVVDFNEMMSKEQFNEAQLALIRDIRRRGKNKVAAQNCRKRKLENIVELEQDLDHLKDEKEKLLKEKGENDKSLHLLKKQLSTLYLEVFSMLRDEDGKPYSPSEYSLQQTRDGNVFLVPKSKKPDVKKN
protocol.summary: Activation of Nrf2 in human HSC3-ARE9 cells assessed as increase of ARE-mediated luciferase expression at 50 uM after 24 hrs relative to control
Assay type: cell-based

- line.notation: "O=c1cc(OC/C(=N\\O)c2ccc(F)cc2)c2ccccc2o1"
  fold change (FC): 1.67
- line.notation: "COc1ccc(C(=O)COc2ccc3oc(=O)ccc3c2)cc1"
  fold change (FC): 0.82
- line.notation: "O=C(COc1ccc2oc(=O)ccc2c1)Nc1ccccc1"
  fold change (FC): 2.08
- line.notation: "O=C(COc1ccc2oc(=O)ccc2c1)c1ccc(F)cc1"
  fold change (FC): 1.58
- line.notation: "O=c1oc2ccccc2cc1OC/C(=N\\O)c1ccc2ccccc2c1"
  fold change (FC): 1.31
- line.notation: "O=c1ccc2cc(OC/C(=N\\O)c3ccc(-c4ccccc4)cc3)ccc2o1"
  fold change (FC): 1.5
- line.notation: "O=C(COc1cc(=O)oc2ccccc12)Nc1ccccc1"
  fold change (FC): 1.06
- line.notation: "C/C(COc1ccc2ccc(=O)oc2c1)=N\\O"
  fold change (FC): 1.68
- line.notation: "COc1ccc(/C(COc2cc3ccccc3oc2=O)=N/O)cc1"
  fold change (FC): 1.49
- line.notation: "O=C(COc1ccc2ccc(=O)oc2c1)c1ccc2ccccc2c1"
  fold change (FC): 0.17
- line.notation: "O=C(COc1ccc2ccc(=O)oc2c1)c1ccc(-c2ccccc2)cc1"
  fold change (FC): 0.85
- line.notation: "O=c1ccc2cc(OC/C(=N\\O)c3ccc(F)cc3)ccc2o1"
  fold change (FC): 2.32

---

target: UniProt:Q16236
protocol.summary: Activation of Nrf2 in human HSC3-ARE9 cells assessed as increase of ARE-mediated luciferase expression at 50 uM after 24 hrs relative to control
Assay type: cell-based
Overview of recorded fold change (FC) for various compounds

- compound: "CC(=O)COc1cc2ccccc2oc1=O"
  fold change (FC): 0.92
- compound: "O=c1cc(O)c2ccccc2o1 [4-HYDROXYCOUMARINS]"
  fold change (FC): 0.84
- compound: "O=c1oc2ccccc2cc1O [3-HYDROXYCOUMARIN]"
  fold change (FC): 0.94
- compound: "COc1ccc(NC(=O)COc2cc(=O)oc3ccccc23)cc1"
  fold change (FC): 1.34
- compound: "C/C(COc1cc2ccccc2oc1=O)=N\\O"
  fold change (FC): 1.63
- compound: "O=c1oc2ccccc2cc1OC/C(=N\\O)c1ccccc1"
  fold change (FC): 3.45
- compound: "O=C(COc1cc2ccccc2oc1=O)c1ccc(F)cc1"
  fold change (FC): 1.64

---

target: Nuclear factor erythroid 2-related factor 2 (Homo sapiens)
protocol.summary: Activation of Nrf2 in human HSC3-ARE9 cells assessed as increase of ARE-mediated luciferase expression at 50 uM after 24 hrs relative to control
Type: cell-based
measurement.label: fold change (FC)

- line.notation: "O=c1cc(OC/C(=N\\O)c2ccccc2)c2ccccc2o1"
  reported.result: 1.35
- line.notation: "O=c1ccc2cc(OC/C(=N\\O)c3ccccc3)ccc2o1"
  reported.result: 3.02
- line.notation: "COc1ccc(/C(COc2ccc3oc(=O)ccc3c2)=N/O)cc1"
  reported.result: 1.33
- line.notation: "COc1ccc(NC(=O)COc2ccc3oc(=O)ccc3c2)cc1"
  reported.result: 0.89
- line.notation: "O=C(COc1ccc2ccc(=O)oc2c1)c1ccc(F)cc1"
  reported.result: 1.14
- line.notation: "O=C(COc1cc(=O)oc2ccccc12)c1ccc(F)cc1"
  reported.result: 1.26
- line.notation: "O=C(COc1cc(=O)oc2ccccc12)c1ccc2ccccc2c1"
  reported.result: 1.52
- line.notation: "O=C(COc1cc(=O)oc2ccccc12)c1ccc(-c2ccccc2)cc1"
  reported.result: 0.42
- line.notation: "O=c1oc2ccccc2cc1OC/C(=N\\O)c1ccc(F)cc1"
  reported.result: 3.25
- line.notation: "O=C(COc1cc(=O)oc2ccccc12)Nc1ccc(-c2ccccc2)cc1"
  reported.result: 1.17
- line.notation: "O=C(COc1cc2ccccc2oc1=O)Nc1ccc(-c2ccccc2)cc1"
  reported.result: 1.22
- line.notation: "O=c1cc(OC/C(=N\\O)c2ccc(-c3ccccc3)cc2)c2ccccc2o1"
  reported.result: 1.32
- line.notation: "O=C(COc1cc2ccccc2oc1=O)Nc1ccc(F)cc1"
  reported.result: 1.34
- line.notation: "O=c1ccc2ccc(OC/C(=N\\O)c3ccc4ccccc4c3)cc2o1"
  reported.result: 1.04
- line.notation: "COc1ccc(/C(COc2ccc3ccc(=O)oc3c2)=N/O)cc1"
  reported.result: 1.28
- line.notation: "O=c1oc2ccccc2cc1OC/C(=N\\O)c1ccc(-c2ccccc2)cc1"
  reported.result: 1.44
- line.notation: "O=C(COc1ccc2oc(=O)ccc2c1)c1ccccc1"
  reported.result: 2.54
- line.notation: "O=C(COc1ccc2ccc(=O)oc2c1)Nc1ccc2ccccc2c1"
  reported.result: 1.06
- line.notation: "O=C(COc1ccc2ccc(=O)oc2c1)Nc1ccc(F)cc1"
  reported.result: 1.16
- line.notation: "O=C(COc1cc2ccccc2oc1=O)c1ccccc1"
  reported.result: 1.72
- line.notation: "C/C(COc1ccc2oc(=O)ccc2c1)=N\\O"
  reported.result: 1.64
- line.notation: "O=C(COc1ccc2ccc(=O)oc2c1)Nc1ccccc1"
  reported.result: 2.27
- line.notation: "C/C(COc1cc(=O)oc2ccccc12)=N\\O"
  reported.result: 1.37
- line.notation: "COc1ccc(C(=O)COc2cc3ccccc3oc2=O)cc1"
  reported.result: 1.54
